- Test system: HCV-NS5b (Hepatitis C virus genotype 1b)
- Construct: (His)6 (C); made in house; host or cells: XL-1 cells (E. coli), IPTG-inducible plasmid, nickel-NTA purification
- Run description: HCV-NS5b enzyme assay (incorporation of radiolabeled UTP)
- Type: biochemical
- Condition details: enzyme inhibition at compound concentration of 33 uM
Below: a set of entries, each annotated with reported inhibition at 33 µM.
Measured quantity: inhibition at 33 µM (%)

>  <Chemical structure>
O=C(O)c1ccc2c(c1)nc(-c1ccc3ncc(-c4ccccc4)cc3c1)n2C1CCCCC1

>  <Unit name>
%

>  <Value measured>
94.2

$$$$
>  <Chemical structure>
O=C(N[C@@H](Cc1c[nH]c2ccc(O)cc12)C(=O)O)c1ccc2c(c1)nc(-c1ccc3ncc(-c4ccccc4)nc3c1)n2C1CCCCC1

>  <Unit name>
%

>  <Value measured>
99.2

$$$$
>  <Chemical structure>
COc1ccc(-c2ccc(Cl)cc2)c(-c2ccc3cc(-c4nc5cc(C(=O)O)ccc5n4CC4CC4)ccc3n2)c1

>  <Unit name>
%

>  <Value measured>
100

$$$$
>  <Chemical structure>
O=C(O)c1ccc2c(c1)nc(-c1ccc3nc(-c4cccc(-c5ccc(Cl)cc5)c4)ccc3c1)n2C1CCCCC1

>  <Unit name>
%

>  <Value measured>
102

$$$$
>  <Chemical structure>
COc1ccc(-c2ccccc2)c(-c2ccc3cc(-c4nc5cc(C(=O)O)ccc5n4C4CCCCC4)ccc3n2)c1

>  <Unit name>
%

>  <Value measured>
101

$$$$
>  <Chemical structure>
COc1ccc(-c2ccc(Cl)cc2)c(-c2ccc3cc(-c4nc5cc(C(=O)O)ccc5n4C4CCCCC4)ccc3n2)c1

>  <Unit name>
%

>  <Value measured>
101

$$$$
>  <Chemical structure>
O=C(O)c1cnc2c(c1)nc(-c1ccc3nc(-c4cc(O)ccc4-c4ccc(Cl)cc4)ccc3c1)n2C1CCCCC1

>  <Unit name>
%

>  <Value measured>
101

$$$$
>  <Chemical structure>
COc1cccc(-c2ccc3cc(-c4nc5cc(C(=O)O)ccc5n4C4CCCCC4)ccc3n2)c1

>  <Unit name>
%

>  <Value measured>
93.5

$$$$
>  <Chemical structure>
COc1cccc(-c2nc3ccc(-c4nc5cc(C(=O)O)ccc5n4C4CCCCC4)cc3nc2-c2cccc(OC)c2)c1

>  <Unit name>
%

>  <Value measured>
96.2

$$$$
>  <Chemical structure>
CC[C@H](C)[C@H](NC(=O)c1ccc2c(c1)nc(-c1ccc3nc(-c4ccccc4)cnc3c1)n2C1CCCCC1)C(=O)O

>  <Unit name>
%

>  <Value measured>
94.5

$$$$
>  <Chemical structure>
O=C(O)c1ccc2c(c1)nc(-c1ccc3nc(-c4ccccc4)c(-c4ccccc4)nc3c1)n2C1CCCCC1

>  <Unit name>
%

>  <Value measured>
97.3

$$$$
>  <Chemical structure>
COc1ccc(-c2ccc(OC)cc2-c2ccc3cc(-c4nc5cc(C(=O)O)ccc5n4C4CCCCC4)ccc3n2)cc1

>  <Unit name>
%

>  <Value measured>
99.3

$$$$
>  <Chemical structure>
COc1ccc(-c2ccc(C(=O)N3CCCC3)cc2-c2ccc3cc(-c4nc5cc(C(=O)O)ccc5n4C4CCCCC4)ccc3n2)cc1OC

>  <Unit name>
%

>  <Value measured>
101

$$$$
>  <Chemical structure>
O=C(O)c1ccc2c(c1)nc(-c1ccc3nc(-c4ccccc4)cc(Nc4ccc(Cl)cc4)c3c1)n2C1CCCCC1

>  <Unit name>
%

>  <Value measured>
97.6

$$$$
>  <Chemical structure>
O=C(O)c1ccc2c(c1)nc(-c1ccc3[nH]c(-c4ccccc4)cc(=O)c3c1)n2C1CCCCC1

>  <Unit name>
%

>  <Value measured>
39.9

$$$$
>  <Chemical structure>
O=C(O)c1ccc2c(c1)nc(-c1ccc3nc(-c4cccc(OCC(=O)N5CCCC5)c4)ccc3c1)n2C1CCCCC1

>  <Unit name>
%

>  <Value measured>
95.8

$$$$
>  <Chemical structure>
COc1ccc(-c2ccccc2C)c(-c2ccc3cc(-c4nc5cc(C(=O)O)ccc5n4C4CCCCC4)ccc3n2)c1

>  <Unit name>
%

>  <Value measured>
103

$$$$

# credit: patent US7511145B2
